tested on: Escherichia coli TOP10; test: shrunken log2 fold change of peptide-encoding DNA abundance (4.5 h post-induction vs induction); higher = less antimicrobial activity (less host growth inhibition); conditions: time post-induction: 4.5 h; library: site-saturation at positions 5, 18, 19, 20;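 further: peptides expressed intracellularly from a pBAD plasmid library in pooled LB shake-flask culture, induced with 0.3% L-arabinose, DNA abundance read by NGS, three biological replicates, DESeq2 with apeglm shrinkage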
Experimental readout: shrunken log2 fold change
Please give only the number in your answer, with no unit.

Completed entries (count: 5):
RRIRHRPPRLPRPRPRPLRMPRP :: -0.0592
RRIRQRPPRLPRPRPRPCQAPRP :: -0.187
RRIRIRPPRLPRPRPRPMNHPRP :: -0.348
RRIRRRPPRLPRPRPRPCNPPRP :: -0.466
RRIRSRPPRLPRPRPRPCCSPRP :: -0.00502

*Q* // query shrunken log2 fold change value for entry RRIRSRPPRLPRPRPRPCAPPRP
*A* 0.0418

*Q* // query shrunken log2 fold change value for entry RRIRCRPPRLPRPRPRPVGVPRP
*A* 0.299

*Q* // query shrunken log2 fold change value for entry RRIRKRPPRLPRPRPRPDRPPRP
*A* 0.0953

*Q* // query shrunken log2 fold change value for entry RRIRQRPPRLPRPRPRPDREPRP
*A* 0.00931

*Q* // query shrunken log2 fold change value for entry RRIRIRPPRLPRPRPRPDIQPRP
*A* -0.37

*Q* // query shrunken log2 fold change value for entry RRIRFRPPRLPRPRPRPGSMPRP
*A* -0.255

*Q* // query shrunken log2 fold change value for entry RRIRIRPPRLPRPRPRPHWLPRP
*A* -0.49

*Q* // query shrunken log2 fold change value for entry RRIRWRPPRLPRPRPRPYPCPRP
*A* -0.105

*Q* // query shrunken log2 fold change value for entry RRIRARPPRLPRPRPRPMYEPRP
*A* -0.0125

*Q* // query shrunken log2 fold change value for entry RRIRNRPPRLPRPRPRPHFAPRP
*A* 0.0588

*Q* // query shrunken log2 fold change value for entry RRIRKRPPRLPRPRPRPTEPPRP
*A* -0.0305

*Q* // query shrunken log2 fold change value for entry RRIRTRPPRLPRPRPRPHLSPRP
*A* -0.0793

*Q* // query shrunken log2 fold change value for entry RRIRNRPPRLPRPRPRPPHCPRP
*A* 0.0234

*Q* // query shrunken log2 fold change value for entry RRIRLRPPRLPRPRPRPCQLPRP
*A* -0.8

*Q* // query shrunken log2 fold change value for entry RRIRERPPRLPRPRPRPFEGPRP
*A* -0.105

*Q* // query shrunken log2 fold change value for entry RRIRKRPPRLPRPRPRPMYCPRP
*A* -0.233

*Q* // query shrunken log2 fold change value for entry RRIRHRPPRLPRPRPRPGYFPRP
*A* -0.0725
